# System: MDA-MB-468 breast
# TEST DESCRIPTION: NCI tumour cell line growth inhibition, 48 h
TGI values by entry

Some compounds with recorded TGI:
NC(=S)N/N=C\c1nccc2c(N)cccc12 = 0.717 µM
O=S(=O)(NCCNc1cc(-c2cn(-c3ccccc3)nc2-c2cccc(O)c2)ccn1)c1ccc(Cl)cc1 = 7.66 µM
Cc1cc2c(-c3ccc(NC(=O)[C@H](N)CC(C)(C)C)cc3C)ccnc2[nH]1 = 10.6 µM
CN1CCN(c2ccc(NC3=C(Cl)C(=O)c4ncccc4C3=O)cc2C#N)CC1 = 1.9 µM

Record "O=C1C(=O)c2ccccc2C(O)=C1CC=C(Cl)Cl" . Reported TGI: 59 µM

Lookup result for "Cc1cccc2c1O/C(=C\c1ccc([N+](=O)[O-])o1)C2=O" ; measured TGI: 2.99 µM

Notebook: CCCCCCCCCCCCCC(=O)C(C)N (centres undefined) , TGI read as 9.51 µM

compound "CCN(CC)CCOc1ccc2c(c1)C(=O)c1cc(OCCN(CC)CC)ccc1-2" , TGI observed: 8.53 µM

The compound listed as "CN(C)c1nc(NCCNS(=O)(=O)c2ccc(C(=O)/C=C/c3ccc(C(F)(F)F)cc3)cc2)nc(Nc2ccc(F)cc2)n1" has a reported TGI of 17 µM
